The reader will find reported growth inhibition values listed item by item below.
Assay: NCI Yeast Anticancer Drug Screen. Data for the sgs1 mgt1 strain (AID 161);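 further: 0% = growth of cultures given vehicle only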
Details: S. cerevisiae sgs1 mgt1 strain, at 5.0 µM (retest, dose inferred, filed as 0.5), stronger effect = higher value
Compounds without any hit were thinned out: in the full panel of roughly 79,000, 15% have a hit.
Answer with a number only, understood to be in %.

CSC(=S)Nc1cc(C)ccn1 | -11

Identify growth inhibition associated with the molecule `C/C(=N/NC(=S)N1CCCCCC1)c1cccc(/C(C)=N\NC(=S)N2CCCCCC2)n1`
43

Identify growth inhibition associated with the molecule `CC(=O)Oc1ccc2c(c1)Cc1cc(N=C3C=CC(=O)O3)ccc1-2`
64

Identify growth inhibition associated with the molecule `Cn1ccnc1Oc1ccc(Cl)cc1`
-61

Identify growth inhibition associated with the molecule `NC(N)=N/N=C\c1c2ccccc2cc2ccccc12`
8

Identify growth inhibition associated with the molecule `CSc1nc(=S)[nH]c2c1c(C)nn2-c1ccccc1`
42

* * *

Experiment: NCI Yeast Anticancer Drug Screen. Data for the mlh1 strain (AID 171);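 further: 0% = growth of vehicle-treated control cultures of the same strain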
Settings: S. cerevisiae mlh1 strain growth inhibition; at 3.7 µM; stronger effect = higher value
Compounds without any hit were thinned out: in the full panel of roughly 79,000, 15% have a hit.
The reader will find reported growth inhibition values listed item by item below.
Answer with a number only, understood to be in %.

Solved cases below.
COc1ccc2nc3cccc([N+](=O)[O-])c3c(NCCN(CCO)CCO)c2c1 | 25
C=CCC1=C(C)C(OC(=O)/C=C/c2ccccc2)CC1=O (configuration not stated) | -2
O=C1C2C(C(=O)N1c1ccc(OCc3ccccc3)cc1)C1c3ccccc3C2C2CCCCN21 (configuration not stated) | 4
Cn1ccnc1Oc1ccc(Cl)cc1 | -4
O=S(=O)(CCCl)c1ccccc1Cl | -1

Identify growth inhibition associated with the compound `O=C(O)c1cccc(-c2c3ccc(=O)cc-3oc3cc(O)ccc23)c1`
-6

* * *

Test: NCI Yeast Anticancer Drug Screen. Data for the mlh1 rad18 strain (AID 175)
Conditions: S. cerevisiae mlh1 rad18 strain growth inhibition; at 50.0 µM (retest, dose inferred, filed as 5.0)
This is part of a sample that, as a whole, favours compounds with a hit. Of some 79,000 tested, about 15% had one in any assay. Active and inactive are the calls of the source. No stated cut-off is given here; in the data, active means growth inhibition above about 70%; inactive means the rest.
I would appreciate it if you answered using one of these outcomes: 1 (yes) = active, 0 (no) = inactive

CC1(C)[C@@H]2CC[C@]1(C)[C@H](OC(=O)CSC#N)C2 | 1 (yes)

// return assay outcome for `COc1ccc2nc3c([N+](=O)[O-])ccc(NCCN(C)C)c3c(NCCN(C)C)c2c1`
0 (no)

// return assay outcome for N#Cc1ccc(C2NN=CC23C(=O)c2ccccc2OC3c2ccccc2)cc1 (stereo unspecified)
0 (no)

// return assay outcome for `COc1ccc(-c2cn(-c3ccc(I)cc3)c3ncnc(N)c23)cc1`
0 (no)

// return assay outcome for `CC1=C(SCCO)C(=O)c2ccccc2C1=O`
0 (no)

// return assay outcome for `CN(Cc1cnc2nc(N)nc(N)c2n1)c1ccc(C(=O)N[C@@H](CCC(=O)O)C(=O)O)cc1`
0 (no)

* * *

Test: NCI Yeast Anticancer Drug Screen. Data for the mec2-1 strain (AID 157)
Conditions: S. cerevisiae mec2-1 strain, at 1.2 µM, stronger effect = higher value
About 79,000 compounds went through this panel and 15% of them were active in at least one assay; those are over-represented in the sample as a whole.
value_type: growth inhibition (%)
Answer with a number only, understood to be in %.

Solved cases below.
Nc1nc(Cl)c(Cl)c(Cl)n1 | 2
COc1ccc(/C=C2\SC(=S)N(/C=C/c3nc4ccccc4[nH]c3=O)C2=O)cc1OC | 3

Identify growth inhibition associated with the compound `Cc1nc(-c2ccccc2)c(-c2ccccc2)s1`
3

Identify growth inhibition associated with the compound OC(COc1cccc2ccccc12)CN1CCOCC1 (configuration not stated)
9

Identify growth inhibition associated with the compound `Cc1ccc(NN(NC(=O)OC(C)C)C(=O)OC(C)C)cc1`
3

Identify growth inhibition associated with the compound `O=C1Nc2ccccc2/C1=C/COc1ccccc1`
-2

Identify growth inhibition associated with the compound `O=C(O)CNc1ccc(Cl)c(Cl)c1`
-10

Identify growth inhibition associated with the compound `Cn1c2ccccc2c(=O)c2cc(NC(=O)CCCCC(=O)Nc3ccc4c(c3)c(=O)c3ccccc3n4C)ccc21`
-5

Identify growth inhibition associated with the compound `O=C(c1cc(Br)ccc1O)c1cc(Br)ccc1O`
29

Identify growth inhibition associated with the compound CCC(C(=O)O)C1=C(c2ccccc2)CCc2ccccc21 (configuration not stated)
9

Identify growth inhibition associated with the compound `Cc1ccc2ccc3cccc4ccc1c2c34`
-1

Identify growth inhibition associated with the compound `O=C1C(Nc2ccccc2)=C(Oc2ccccc2)C(=O)c2ccccc21`
2

* * *

Assay: NCI Yeast Anticancer Drug Screen. Data for the mec2-1 strain (AID 157)
Details: S. cerevisiae mec2-1 strain, at 33.0 µM, stronger effect = higher value
Compounds without any hit were thinned out: in the full panel of roughly 79,000, 15% have a hit.
value_type: growth inhibition (%)
Answer with a number only, understood to be in %.

Solved cases below.
CCOC(=O)c1cnc2c(C(F)(F)F)cccc2c1N=[N+]=[N-] | 25
O=C(OCC=C1CCCC1)c1cc([N+](=O)[O-])cc([N+](=O)[O-])c1 | 89

In the following, a different molecule is considered.
Identify growth inhibition associated with the molecule `O=[N+]([O-])c1ccc2nc3ccccc3cc2c1`
27

* * *

The reader will find reported growth inhibition values listed item by item below.
Assay: NCI Yeast Anticancer Drug Screen. Data for the mec2-1 strain (AID 157)
Settings: S. cerevisiae mec2-1 strain, at 3.7 µM, stronger effect = higher value
About 79,000 compounds went through this panel and 15% of them were active in at least one assay; those are over-represented in the sample as a whole.
Answer with a number only, understood to be in %.

CN1Cc2ccccc2/C=C\c2ccccc21 | 2

In the following, a different compound is considered.
Identify growth inhibition associated with the compound `CCC(=O)OCCn1c2nc(=O)[nH]c(=O)c-2nc2cc(C)c(C)cc21`
-3

* * *

Assay: NCI Yeast Anticancer Drug Screen. Data for the rad18 strain (AID 177)
Conditions: S. cerevisiae rad18 mutant growth inhibition; at 11.0 µM
The panel holds about 79,000 compounds, 15% with a hit somewhere; the sample as a whole holds those more often. Calls of active or inactive are those of the source. Cut-off read from the data, not from the text of the source: active = growth inhibition above about 70%; inactive = the rest.
I would appreciate it if you answered using one of these outcomes: active, inactive

COC(=O)CCNc1c2ccccc2nc2cccc([N+](=O)[O-])c12 | active
c1ccc(-c2ccnc3c2ccc2c(-c4ccccc4)ccnc23)cc1 | inactive
COC(=O)C1=C(C)NC(C)=C(C(=O)OC)C1c1cccc(/[N+]([O-])=C/c2ccccc2)c1 | inactive

// return assay outcome for `CO[C@H]1C[C@](C)(O)Cc2cc3c(c(O)c21)C(=O)c1c(O)cc2c(c1C3=O)O[C@@H]1O[C@@]2(C)[C@H](O)[C@@H](N(C)C)[C@@H]1O`
inactive

* * *

Assay: NCI Yeast Anticancer Drug Screen. Data for the bub3 strain (AID 167)
Settings: S. cerevisiae bub3 mutant strain, at 1.2 µM, stronger effect = higher value
This is part of a sample that, as a whole, favours compounds with a hit. Of some 79,000 tested, about 15% had one in any assay.
value_type: growth inhibition (%)
Answer with a number only, understood to be in %.

Solved cases below.
CN(N=O)N1C(=O)SCC(c2ccccc2)(c2ccccc2)C1=O | -2
O=C1Nc2ccccc2/C1=C/COc1ccccc1 | -3

Identify growth inhibition associated with the molecule CNC1C(OC2C(OC3C(O)C(O)C(N=C(N)N)C(O)C3N=C(N)N)OC(C)C2(O)CO)OC(CO)C(O)C1O (stereo unspecified)
-2

Identify growth inhibition associated with the molecule `CC1=C(SCCO)C(=O)c2ccccc2C1=O`
-4

Identify growth inhibition associated with the molecule `CC1=NN(c2cccc(Cl)c2)C(=O)C1`
-42

Identify growth inhibition associated with the molecule `CSC1=NNC(SC)=NN1`
-12

Identify growth inhibition associated with the molecule CCCCN1C(=O)N(c2ccc(OCC)cc2)C2N(CCCC)C1C(C)(C)C2(C)C (stereo unspecified)
-9

Identify growth inhibition associated with the molecule `CCC/C(Cl)=N\OC(=O)Nc1ccc(Br)cc1`
1

* * *

Test: NCI Yeast Anticancer Drug Screen. Data for the rad14 strain (AID 159);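 further: 0% = growth of vehicle-treated control cultures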
Conditions: S. cerevisiae rad14 strain growth inhibition; at 100.0 µM; stronger effect = higher value
About 79,000 compounds went through this panel and 15% of them were active in at least one assay; those are over-represented in the sample as a whole.
The reader will find reported growth inhibition values listed item by item below.
Answer with a number only, understood to be in %.

Solved cases below.
Cc1ccc(CCC2=CCCc3c2ccc2ccccc32)cc1 | 13
C=CCC1=C(C)C(OC(=O)/C=C/c2ccccc2)CC1=O (stereo unspecified) | 18
Cc1ccc(-c2ccc(Nc3c4ccccc4nc4ccccc34)cc2)cn1 | 59

In the following, a different compound is considered.
Identify growth inhibition associated with the compound `CCCCCCCCCCC(=O)Cl`
88
